Test system: UO-31 renal
assay: NCI-60 one-dose screen, 48 h
condition-set: 10 µM unless noted
The panel holds about 83,000 compounds, 20% with a hit somewhere; the sample as a whole holds those more often. Activity calls are given as the source filed them. How the source made its calls: active means growth percent below 10; inactive means the rest.
Just give me one of these, please: yes (1) (active), no (0) (inactive)

Please review the following examples before continuing.
{"compound": "CCOC(=O)/C(F)=C/C1CC1C(c1ccccc1)c1ccccc1 (stereo not given)", "group": "no (0)"}
{"compound": "O=C1c2cccc3c(N4CCN(Cc5ccccc5)CC4)ccc(c23)C(=O)N1c1cccc(-c2nn(-c3ccccc3)cc2-c2nc3ccccc3s2)c1", "group": "no (0)"}
{"compound": "Cc1ccc2nc(COc3ccc(C(=O)NNC(=O)Nc4ccc(Cl)c(C(F)(F)F)c4)cc3)[nH]c2c1", "group": "no (0)"}
{"compound": "COc1ccccc1/C=C/c1cccc(NC(=S)NCCCCN(C)C)c1", "group": "yes (1)"}
{"compound": "CN1CCN(CCS(=O)(=O)Nc2cc(-c3ccc4ncnc(Nc5ccc(F)c(Cl)c5)c4c3)cnc2Cl)CC1", "group": "no (0)"}
{"compound": "Cc1cc(=O)oc2cc(OCC(O)CNN3C(=O)c4cccc5c(N6CCN(C)CC6)ccc(c45)C3=O)ccc12 (stereo not given)", "group": "no (0)"}
{"compound": "Cc1cc(C(NC(=O)C2CC3(CC(Nc4cccc5c4C(=O)N(C4CCC(=O)NC4=O)C5=O)C3)C2)c2ccc3c(c2)OC(F)(F)O3)c(O)c2ncccc12 (stereo not given)", "group": "yes (1)"}
{"compound": "COc1cc(/C=C/C(=O)c2ccc(S(=O)(=O)NCCNc3nc(N(C)C)nc(N4CCOCC4)n3)cc2)cc(OC)c1OC", "group": "no (0)"}

Query: Please indicate how the test categorized `COc1nc(N)ncc1-c1ccc2ncnc(N3CCc4cc(F)c(Cl)cc43)c2c1` .
Response: yes (1)

Query: Please indicate how the test categorized COc1c(F)ccc(C(=O)Nc2ccc3nc(NC(=O)C4CCCN(S(=O)(=O)c5ccc(C(C)(C)C)cc5)C4)sc3c2)c1F (stereo not given) .
Response: no (0)

Query: Please indicate how the test categorized `Cn1cc(-c2cc3nc(-c4cn(C)c5ncc(Br)cc45)cc(N)n3n2)c2cc(F)ccc21` .
Response: no (0)

Query: Please indicate how the test categorized `S=C(NCCc1ccccc1)Nc1ccc(OCc2nc3ccc(Cl)cc3[nH]2)cc1` .
Response: no (0)

Query: Please indicate how the test categorized CC1CCc2c(sc3nc(SCC(=O)c4cccc([N+](=O)[O-])c4)n(-c4ccccc4)c(=O)c23)C1 (stereo not given) .
Response: no (0)

Query: Please indicate how the test categorized COC(=O)c1c(C(=O)OC)c2ccc3c4ccccc4ccc3n2c1C(=O)C(C)Br (stereo not given) .
Response: no (0)

Query: Please indicate how the test categorized `Cc1nn(-c2ccccc2)c2nc(C)n(C(=O)N/N=C/c3cccc([N+](=O)[O-])c3)c(=O)c12` .
Response: no (0)

----------
Tested on: MDA-MB-435 melanoma
assay: NCI-60 one-dose screen, 48 h (100 = growth as untreated, 0 = no growth, -100 = all killed)
condition-set: 10 µM unless noted
The panel holds about 83,000 compounds, 20% with a hit somewhere; the sample as a whole holds those more often.
Decision: growth beneath -20% gives Met; growth meeting or exceeding -20% gives Not met.

{"compound": "CC1=C(C(=O)Nc2ccccc2)C(c2ccc3ccccc3c2)n2c(nc3ccccc32)N1 (stereo not drawn)", "group": "Not met"}
{"compound": "COC(=O)c1c(C(=O)OC)c2ccc3c4ccccc4ccc3n2c1C(=O)C(C)Br (stereo not drawn)", "group": "Not met"}
{"compound": "Fc1ccc(F)c(CNc2nc(SCCN3CCOCC3)nc3c2cnn3CC(Cl)c2ccc(Br)cc2)c1 (stereo not drawn)", "group": "Not met"}
{"compound": "CCc1ccccc1-c1nc(CN[C@@H]2C[C@@H]3C[C@H]([C@H]2C)C3(C)C)c(C)o1", "group": "Met"}

Query: Hello, I'm reviewing records and need to know if growth of `CCCCCCCOc1ccc(S(=O)(=O)Nc2ccc(C)c(F)c2C(=O)O)cc1` is below -20%. Could you check?
Response: Not met

Query: Hello, I'm reviewing records and need to know if growth of `N#Cc1c(NC(=O)N2CCOCC2)n(-c2ccc(OC(F)(F)F)cc2)c2cc(F)ccc12` is below -20%. Could you check?
Response: Not met

Entry source: PubChem BioAssay (NCI)
